Kindly state pEC50 for each of the entries shown.
- EXPERIMENTAL_SYSTEM: Human CB1R (Cannabanoid receptor 1) (Homo sapiens (Human))
- Sequence (P21554 whole entry): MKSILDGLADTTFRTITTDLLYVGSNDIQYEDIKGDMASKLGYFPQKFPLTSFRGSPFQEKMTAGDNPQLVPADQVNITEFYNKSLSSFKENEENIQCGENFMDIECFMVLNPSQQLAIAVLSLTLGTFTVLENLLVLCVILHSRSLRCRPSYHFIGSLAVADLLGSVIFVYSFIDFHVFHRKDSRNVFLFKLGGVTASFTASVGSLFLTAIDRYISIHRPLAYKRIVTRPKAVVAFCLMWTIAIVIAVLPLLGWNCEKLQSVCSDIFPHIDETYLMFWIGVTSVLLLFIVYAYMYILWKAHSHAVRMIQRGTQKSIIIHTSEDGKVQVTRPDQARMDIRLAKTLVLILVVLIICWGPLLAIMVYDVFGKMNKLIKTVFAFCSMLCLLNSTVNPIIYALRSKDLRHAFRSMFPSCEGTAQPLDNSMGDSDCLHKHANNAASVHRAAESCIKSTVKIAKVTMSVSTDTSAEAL
- ASSAY_NAME: CB-1 in vitro cAMP (HTRF) assay in HEK-293 cells
- CONDITION_LABEL: HEK-293 cells stably transfected with human CB1R, 250 nM Forskolin, mean where tested more than once, read-out: CB-1 (HEK_cAMP) EC50
The scale used: pEC50 is minus the common logarithm of the concentration in molar units.

Request: State, in one line, measured pEC50 of O=C(Oc1ccccc1)N1CCC(c2n[nH]c3ccc(C(c4ccc(Cl)cc4)c4ccc(Cl)cc4)cc23)CC1
Result: 7.10

Request: In one line, give reported pEC50 of the entry NC(=O)c1ccc(N2CCC(c3n[nH]c4ccc(C(c5ccc(Cl)cc5)c5ccc(Cl)cc5)cc34)CC2)cc1 .
Result: 7.17

Request: Complete the entry with pEC50 for NS(=O)(=O)c1cccc(C(=O)N2CCC(c3nn(CCO)c4ccc(C(c5ccc(Cl)cc5)c5ccc(Cl)cc5)cc34)CC2)c1
Result: 7.17
